tested on: HS 578T breast; assay: NCI tumour cell line growth inhibition, 48 h
Kindly supply the reported TGI values for the records listed here.

Consider the following illustrative entries.
compound | result
O=c1ncc(I)cn1C1CC(O)C(CO)O1 (stereo unspecified) | > 3250 µM
[2H]c1nc(C)nc([2H])c1-c1cc(NC[C@@H](C)c2cccc3c(C(=O)NC)ccnc23)ncn1 | > 100 µM
Nc1nc2cc(O)ccc2n2cc3c(F)cccc3c12 | > 100 µM
O=C1C(C=NC(=S)c2ccccc2)=C(O)c2ccccc21 | > 100 µM
O=C1Nc2c(Cl)cc(Cl)cc2C1=O | 37.6 µM

Now take the following compound into account.
In: Would you mind telling me what TGI value was observed for O=C(NC(O)(C(F)(F)F)C(F)(F)F)c1ccccc1 ?
Out: > 100 µM

###

tested on: SW-620 colon; assay: NCI tumour cell line growth inhibition, 48 h
Assignment: determine reported TGI for the given compounds.

Here's what some known entries look like.
compound | target entity | result
c1ccc2nc(N/N=C3\CCCCC3C3CCCCC3)ccc2c1 (centres undefined) | SW-620 colon | 16.3 µM
CCOC(=O)/C(C#N)=C\C=C(\Sc1nc2ccccc2s1)c1ccc(Cl)cc1 | SW-620 colon | 39.2 µM
O=[N+]([O-])c1ccc(C2CC(c3ccc(NCc4nc5ccccc5[nH]4)cc3)=NO2)cc1 (centres undefined) | SW-620 colon | > 100 µM
COc1cc(C2Oc3cc(-c4oc5cc(O)cc(O)c5c(=O)c4O)ccc3OC2CO)ccc1O (centres undefined) | SW-620 colon | > 100 µM
Cc1ccc(S(=O)(=O)C(CC(NC=O)S(=O)(=O)c2ccc(C)cc2)NC=O)cc1 (centres undefined) | SW-620 colon | > 100 µM
CC(=O)/C=c1\[nH]/c(=C\C=C\c2ccccc2)c(=O)n1/C=C1\C(=O)Oc2ccccc2C1=O | SW-620 colon | > 100 µM

// for each compound in input: emit TGI
1. S=C(Nc1ccccc1)c1ccc(CN2CCCCC2)s1
2. CCCCCCCCCCCCCC(=O)NCO
3. CC(=O)OC1C[C@@H](C)C2(CC(c3ccoc3)OC2=O)C2CCC(O)C3(CO3)C12CO (some centres undefined)
4. Cc1cccc2nc3cccc(C(=O)NCCC[N+](C)(CCCNC(=O)c4cccc5nc6cccc(C)c6nc45)Cc4ccc([N+](=O)[O-])n4C)c3nc12
5. O=S(=O)(O)c1cc(S(=O)(=O)O)c2c(Nc3ccnc4ccccc34)ccc(S(=O)(=O)O)c2c1

Out:
1: 44.7 µM; 2: > 100 µM; 3: > 100 µM; 4: > 100 µM; 5: > 100 µM

Look up TGI for the entries below, preserving their order.
1. C=C(C)c1cc(C(C)(C)C)cc(C(=C)C)c1S(C)(=O)=O
2. C/C(=C\COP(=O)(O)OP(=O)(O)O)CCCOCc1ccccc1
3. COc1ccc(OC)c(C#N)c1C#N (tested in a mixture with another compound)
4. O=C1OCC2=C1C(c1ccc3c(c1)OCO3)c1cc3c(cc1O2)OCO3 (centres undefined)
5. COc1cc(C(=O)N(C)N(C)C)cc(OC)c1OC

Out:
1: > 100 µM; 2: > 100 µM; 3: > 100 µM; 4: > 100 µM; 5: > 10 µM

###

tested on: MDA-N; test: NCI tumour cell line growth inhibition, 48 h
Where a SMILES comes first, the peptide text is derived from it. [ ]: non-standard residue; d: D form. The star is where a group is joined. ξ: configuration not given here. NMeF = CN[C@@H](Cc1ccccc1)C(=O)O; NMeV = CN[C@H](C(=O)O)C(C)C; ξNMeN = CNC(CC(N)=O)C(=O)O; NMeA = CN[C@@H](C)C(=O)O; ξNMeV = CNC(C(=O)O)C(C)C; Boc = CC(C)(C)OC(=O)*
reported endpoint: TGI

Solved cases below.
compound | result
CCCCOC(=O)CC(CC(=O)OCCCC)(OC(C)=O)C(=O)OCCCC | > 200 µM
O=C1C(Cl)C2(CC(/C=C/c3cccs3)=NN2c2cccc(S(=O)(=O)O)c2)N1c1nc2ccccc2s1 (stereo unspecified) | > 100 µM

Batch request: TGI per item, same order as input.
1. Nc1nc(Cl)c(N=Nc2ccc(Cl)cc2)c(NCC2(CO)CCC(CCc3ccccc3)C2)n1 (stereo unspecified)
2. CC(=O)OC1C[C@@H](C)C2(CC(c3ccoc3)OC2=O)C2CCC(O)C3(CO3)C12CO (stereo partly specified)
3. Fc1cccc(C2SCC3=Nc4ccccc4CN32)c1 (stereo unspecified)
4. COC(=O)[C@H](C)N(C)C(=O)C(CC(N)=O)N(C)C(=O)[C@H](Cc1ccccc1)N(C)C(=O)[C@@H]1CCCN1C(=O)[C@H](C(C)C)N(C)C(=O)C(C(C)C)N(C)C(=O)[C@@H](NC(=O)OC(C)(C)C)C(C)C (stereo partly specified) (Boc-V[ξNMeV][NMeV]P[NMeF][ξNMeN][NMeA]-OMe)

Out:
["30.2 µM", "> 100 µM", "> 100 µM", "> 50 µM"]

###

Exercise: state measured TGI for each of the molecules provided.
tested on: OVCAR-5 ovarian; assay: NCI tumour cell line growth inhibition, 48 h
Where a SMILES comes first, the peptide text is derived from it. [ ]: non-standard residue; d: D form. The star is where a group is joined. ξ: configuration not given here. NMeF = CN[C@@H](Cc1ccccc1)C(=O)O; NMeV = CN[C@H](C(=O)O)C(C)C; ξNMeN = CNC(CC(N)=O)C(=O)O; NMeA = CN[C@@H](C)C(=O)O; ξNMeV = CNC(C(=O)O)C(C)C; Boc = CC(C)(C)OC(=O)*

molecule | TGI
C=C(C(=O)OC)N1C(=O)CC(C)C1=O (stereo not given) | 29.8 µM
S=c1[nH]nc(-c2ccccc2)n1/N=C\c1ccc(-c2ccc(Cl)cc2)o1 | > 100 µM
Cc1c2c(n(C)c1C)C(=O)C1C(C2=O)C2(C)c3ccccc3C1(C)c1ccccc12 (stereo not given) | > 100 µM
O=C(O)c1ccc(NCc2nc3cc(Cl)c(Cl)cc3[nH]2)cc1 | > 100 µM
CCCN1C/C(=C\c2ccc(O)c(OC)c2)C(=O)/C(=C/c2ccc(O)c(OC)c2)C1 | > 100 µM
COC(=O)/C=C\[C@H]1[C@H](C)N1S(=O)(=O)c1ccc(C)cc1 (stereo not given in full) | > 100 µM
COC(=O)[C@H](C)N(C)C(=O)C(CC(N)=O)N(C)C(=O)[C@H](Cc1ccccc1)N(C)C(=O)[C@@H]1CCCN1C(=O)[C@H](C(C)C)N(C)C(=O)C(C(C)C)N(C)C(=O)[C@@H](NC(=O)OC(C)(C)C)C(C)C (stereo not given in full) (Boc-V[ξNMeV][NMeV]P[NMeF][ξNMeN][NMeA]-OMe) | > 75 µM
Cc1cc(=O)n2nnc3c4ccccc4ccc3n12 | 14.7 µM
CC(=O)c1c(Nc2cccc(F)c2)[nH]c2c(Cl)cc(Cl)c(Cl)c2c1=O | > 100 µM

Let us move to another entry and its TGI.
In: Tell me reported TGI for C=C(CCOC)CCC1CCCCC/C1=N\N(C)C (stereo not given) , tested with OVCAR-5 ovarian.
Out: > 100 µM

###

system: OVCAR-8 ovarian; experiment: NCI tumour cell line growth inhibition, 48 h
reported endpoint: TGI (µM)
One number for each entry, in µM.

molecule | reported endpoint | numeric result
O=c1c2cc(I)ccc2nc(Sc2ccc([N+](=O)[O-])cc2[N+](=O)[O-])n1Cc1ccccc1 | TGI | 4.58
Cc1cccc2c(NCCCN(C)C)c3c([N+](=O)[O-])ccc(C)c3nc12 | TGI | 1.58

Parameters: items (list). Returns: TGI for each item.
1. CC(CCOc1ccc2ccc(=O)oc2c1)C1=CC(=O)C(C)(C)O1 (stereo not given)
2. COc1cc(/C=C/C(=O)c2ccccc2)cc(OC)c1OC

Out:
1. 4.45
2. 11.8

###

Assign TGI to each entry below.
test system: HCC-2998 colon; test: NCI tumour cell line growth inhibition, 48 h
Numbers only, in µM.

Please report TGI for every entry that follows.
1. C[CH2][Pb]([CH2]C)([CH2]C)[O]C(=O)COC
2. Clc1ccccc1/C=C/c1ccnc2ccccc12
3. COc1cc(/C=C/C(=O)c2ccccc2)cc(OC)c1OC
4. COc1ccc(C(=O)c2sc3nc4c(cc3c2N)CCCC4)cc1OC

Out:
[2.39, 32.2, 25.6, 30.4]

###

test system: SNB-75 CNS; test: NCI tumour cell line growth inhibition, 48 h
reported endpoint: TGI

compound | reported endpoint | result
CC(C)N(C(C)C)[PH+]1O[PH+](N(C(C)C)C(C)C)O[PH+](N(C(C)C)C(C)C)O[PH+](N(C(C)C)C(C)C)O1.[C-]#[O+].[C-]#[O+].[C-]#[O+].[C-]#[O+].[C-]#[O+].[C-]#[O+].[C-]#[O+].[C-]#[O+].[Mo].[Mo] (stereo not drawn) | TGI | > 100 µM
CC(=O)/C=c1\[nH]/c(=C\C=C\c2ccccc2)c(=O)n1/C=C1\C(=O)Oc2ccccc2C1=O | TGI | > 100 µM
CCOC(=O)N1CCN(P(=O)(Nc2ccc3nc(NC(=O)OC)[nH]c3c2)Oc2ccccc2)CC1 (stereo not drawn) | TGI | > 100 µM
O=c1c2cc(I)ccc2nc(Sc2ccc([N+](=O)[O-])cc2[N+](=O)[O-])n1Cc1ccccc1 | TGI | 16.7 µM

Below is a list of compounds. For each, state its recorded TGI.
1. Cc1cc(=O)[nH]c(S(=O)(=O)NC(=S)Nc2ccc(Cl)cc2)n1
2. Cc1cnc(-c2ccccc2)o1
3. CCN(CC)CCN1C(=O)CC2[C@@H]3CCc4cc(OC)ccc4C3CC[C@]2(C)C1=O (stereo partly drawn)
4. C#CC[C@@H]1C[C@]2(C)[C@H]3CC[C@@H]4[C@H]5C(C(=C)C)CC[C@]5(C(=O)NCCCCN)CC[C@@]4(C)[C@]3(C)CC[C@H]2C(C)(C)[C@H]1OC(C)=O (stereo partly drawn)
5. CCC1OC(=O)CC(O)C(C)C(OC2OC(C)C(O)C(N(C)C)C2O)C(CC=O)CC(C)C(=O)/C=C/C2(C)OC2C1C (stereo not drawn)

Out:
1: > 100 µM; 2: > 100 µM; 3: > 100 µM; 4: 2.78 µM; 5: 90 µM

Data origin, for the record: PubChem BioAssay (NCI)
